Assay: BET inhibitor-based combinations targeting novel dependencies in MECOM-rearranged (r) AML: AML-191 cell line (AID 2202236; further: nearly all actives have a fitted effect of over 35% in size; further: potency means the concentration at half of the fitted maximal effect)
Conditions: AML-191 viability, CellTiter-Glo luminescence, 48 h; series mostly up to 46 µM
Records with an inconclusive call do not appear. Active and inactive are the calls of the source. The call rests on the fitted dose curve; in most records, active means well fitted inhibition curve with a large enough effect; inconclusive means small, poorly fitted or top-dose-only effect; inactive means flat fitted curve, though single readings scatter.
measurement_name: Potency

[[record]]
compound = "CC(C)C[C@H](NC(=O)[C@@H](O)[C@H](N)Cc1ccccc1)C(=O)O"
observed_result = "inactive"

[[record]]
compound = "NC(=O)c1ccccc1Nc1ccnc(Nc2cccc(O)c2)n1"
observed_result = "5.25 µM (active)"

[[record]]
compound = "Cc1c(C)n(Cc2ccc(-c3ccccc3C(=O)O)cc2)c2ccc(C(=O)N[C@@H](C)c3ccc([N+](=O)[O-])cc3)cc12"
observed_result = "inactive"

[[record]]
compound = "CC(C)N(CCCNC(=O)Nc1ccc(C(C)(C)C)cc1)C[C@H]1O[C@@H](n2ccc3c(N)ncnc32)[C@H](O)[C@@H]1O"
observed_result = "inactive"

[[record]]
compound = "COC(=O)N1CC2(CC2)C[C@H](C(=O)NO)[C@H]1C(=O)N1CCN(c2ccccc2)CC1"
observed_result = "inactive"

[[record]]
compound = "C[C@@H](NCCCc1cccc(C(F)(F)F)c1)c1cccc2ccccc12"
observed_result = "23.5 µM (active)"


// for each compound in input: emit Potency
1. COc1ccc(COc2cc3oc(=O)c4cc(C(C)O)ccc4c3cc2OC)cc1 (stereo unspecified)
2. Nc1ccccc1NC(=O)c1ccc(CNc2nccc(-c3cccnc3)n2)cc1
3. O=c1c(-c2ccc(O)cc2)coc2cc(O)ccc12
4. CC(=O)NC(CS)C(=O)O (stereo unspecified)

RESULT:
["20.9 µM (active)", "1.66 µM (active)", "inactive", "inactive"]

// for each compound in input: emit Potency
1. O=NN(CCCl)C(=O)NCCCl
2. COC(=O)Nc1ccc(-c2nc(N3CCOCC3)c3cnn(C4CCN(Cc5cccnc5)CC4)c3n2)cc1
3. C[C@]12CCC(=O)C=C1CC[C@@H]1[C@@H]2[C@@H](O)C[C@@]2(C)[C@H]1CC[C@]2(O)C(=O)CO
4. O=C(CCCCCCNC(=O)c1cnc(N(c2ccccc2)c2ccccc2)nc1)NO
5. COc1cc(Nc2ncc(F)c(Nc3ccc4c(n3)NC(=O)C(C)(C)O4)n2)cc(OC)c1OC
6. Cc1ccc([N+](=O)[O-])cc1S(=O)(=O)N(C)/N=C/c1cnc2ccc(Br)cn12
7. O=C1NC(O)CCN1[C@@H]1O[C@H](CO)[C@H](O)[C@H]1O (stereo partly specified)
8. C[C@@H](c1ccc2nccn2c1)n1nnc2ncc(-c3cnn(C)c3)nc21

RESULT:
inactive
1.86 µM (active)
0.417 µM (active)
7.42 µM (active)
5.9 µM (active)
0.166 µM (active)
inactive
20.9 µM (active)
